Sourced from ChEMBL document CHEMBL1201862

System: SW-620
TEST_DESCRIPTION: NCI tumour cell line growth inhibition, 48 h
Active and inactive are the calls of the source. Rule as the data show it: active = GI50 up to about 1.1 µM and inactive = higher.

MOLECULE	GI50
CCOC(=O)C1=C(C)NC(=O)NC1c1coc2cc(C)cc(C)c2c1=O (stereo not drawn)	32.1 µM (inactive)
CCCCCCCCCCCCCP(=O)(O)O	> 100 µM (inactive)
CCOC(=O)NC(=O)c1c[nH]c(=O)[nH]c1=O	> 100 µM (inactive)

* * *

System: RXF 393
TEST_DESCRIPTION: NCI tumour cell line growth inhibition, 48 h
Active and inactive are the calls of the source. Rule as the data show it: active = GI50 up to about 1.1 µM and inactive = higher.
Classes used: active, inactive

MOLECULE	CLASS_ASSIGNMENT
O=S(=O)(Cc1ccccc1)c1nnc(S(=O)(=O)c2ccc(Cl)cc2)s1	inactive
CC(C)(C)N1CSC(=S)N(Cc2ccco2)C1	inactive
CCC12CCCN(Cc3ccccc3)C1c1c(n(C)c3ccccc13)C(CO)C2 (stereo not drawn)	inactive
O=C(/C=C/c1ccccc1)CCN1CCN(CCC(=O)/C=C/c2ccccc2)CC1	inactive
CCc1cn(C2CC(CO)C(CO)S2)c(=O)[nH]c1=O (stereo not drawn)	inactive
CN(C)/C=C/c1c2c(nc3ccccc13)C(=O)c1cccnc1C2=O	active
Cc1ccc2c(c1)CC1(Cc3ccccc3C1=O)C2=O (stereo not drawn)	inactive
Cc1ccc(CC(Cc2ccc(C)cc2C(=O)O)C(=O)O)cc1 (stereo not drawn)	inactive
Cc1ccc(S(=O)(=O)N/N=C/C(Br)=C(/Br)C(=O)O)cc1	inactive
CC1(C)OC2OC(/C=C/[N+](=O)[O-])C3OC(C)(C)OC3C2O1 (stereo not drawn)	inactive
CN(C)CC1CC/C(=C\c2ccc3c(c2)OCO3)C1=O (stereo not drawn)	inactive
Cc1cccc(NC(=O)c2cccc([N+](=O)[O-])c2O)c1C	inactive
COc1ccc(C2NC(=O)Nc3c2c(=O)oc2c3ccc3ccccc32)cc1 (stereo not drawn)	inactive
